# Assay Info: chemical genetic growth profiling, strain panel (AID 1159580);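 note: tested at 20 µM; growth read once vehicle control cultures reached saturation at 30 °C; 1 = growth at the plate median or of vehicle wells; lower values mean less growth of the strain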
# Details: S. cerevisiae deletion strains, growth OD, locus YDL214C, strain PRR2, stronger effect = lower value
The campaign covered roughly 5,500 compounds. About 2,000 (36%) were called active. About 18% were inconclusive and are not listed. The list shows a part of the results.

Input Smiles	normalized growth
N/C(=N/OC(=O)c1ccc([N+](=O)[O-])cc1)c1c(Cl)cccc1Cl	0.91
O=C(Nc1ccccc1C(=O)O)OCC1c2ccccc2-c2ccccc21	0.884
CC(C)(C)NC(=S)N/N=C\c1cc(Br)c(O)c(Br)c1	0.944
CC(C)/C(=N/OC(=O)c1ccc([N+](=O)[O-])cc1)c1ccccc1	0.148
O=c1[nH][nH]c(=O)n1CCCc1cc2cccc3ccc4cccc1c4c32	0.968
O=C(Nc1cc2ccccc2s1)N1CCN(Cc2c(F)cccc2Cl)CC1	0.938
O=C1Nc2ccccc2/C1=C\c1c[nH]c2ccccc12	0.289
Cc1cc(Br)c(O)c(/C=N\NC(=S)NC(C)(C)C)c1	0.922
N#C/C(N=Cc1cc(Cl)cc(Cl)c1O)=C(\C#N)N=Cc1cc(Cl)cc(Cl)c1O	0.754
N/C(=N/OC(=O)c1cnn(-c2ccc([N+](=O)[O-])cc2)c1C(F)(F)F)c1ccc(Cl)cc1	0.937
